The reader will find reported OD (PE binding ELISA) values listed item by item below.
Target: T1, human IL-2Rα (human, UniProt P01589 22-240, limits assumed)
T1 construct: recombinant protein; also called hu IL-2R; human IL-2Ra
T1 sequence: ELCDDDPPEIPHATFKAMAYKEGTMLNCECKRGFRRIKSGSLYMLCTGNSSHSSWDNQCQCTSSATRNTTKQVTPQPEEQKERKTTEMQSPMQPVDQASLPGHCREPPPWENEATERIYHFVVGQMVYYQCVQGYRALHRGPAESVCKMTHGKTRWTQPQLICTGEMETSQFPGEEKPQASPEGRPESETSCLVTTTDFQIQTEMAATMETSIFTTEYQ
Experiment: ELISA, P.E. on coated antigen
Method: In a binding ELISA, human or mouse IL-2Rα, IL-2Rβ and IL-2Rγ proteins were coated directly on maxisorp microtiter plates overnight at 4° C. Free binding sites were blocked using 4% Marvel in PBS for 1 hour. Next, 1:5 dilution of P.E. in 1% Marvel/PBS were added to wells and incubated for 1 hour. […] Binding specificity was determined based on O.D. at 450 nm values compared to negative controls.
Quick note: give the figure in OD450 nm, leave out the unit.

Some solved entries appear below for comparison.
BINDER | UNITS_SYMBOL | OD (PE binding ELISA)
FJ1427_P035MP01E04 (VHH, periplasmic extract; also called clone nr; 29) VHH: QVQLVESGGGLVQAGDSLRLSCAVSGRSFRNYILAWYRQAPGKEREFLAAISWLDGTFYANSVEGRFTISRDNPKNTVHLQMDGLKPEDTAVYYCAADRGPVRPVLAPDVDYWGQGTQVTVAS | OD450 nm | 2.61
FJ1427_P035MP05H08 (VHH, periplasmic extract; also called clone nr) VHH: QLQLVESGGGLVQAGGSLRLSCAASGLTFDGYAIGWFRQASGKEREGVSYINGRDGSTFYADSVKGRFIISSDNAKNTVDLQMNSLKPDDAAVYYCAVDRLGSRGAYVSTWWRSPDMDLWGKGTLVTVSS | OD450 nm | 2.17
FJ1427_P035MP01A11 (VHH, periplasmic extract; also called clone nr; 81) VHH: QVQLVESGGGLVQPGGSLRLSCAASGRTFETHNMGWFRRAPGKEREFVAVISWNVDSTEYTDSVKGRFTISRDNDKNMVYLQMNSLKPEDTGVYYCAADNIPLSSDMSPTAAEYGYWGQGTQVTVSS | OD450 nm | 2.81

Ask | Name the reported OD (PE binding ELISA) value associated with the binder FJ1427_P035MP05C10 (VHH, periplasmic extract; also called clone nr) VHH: QLQLVESGGGLVQTGGSLRLSCSTSGFTFDGYAIGWFRQAPGKEPEGVSYITGSDGSTYYADSVKGRFTISSDNAKNTVYLHMNSLKPDDAAVYYCAIDRLGSGGAYVPIWWRSSDMDLWGKGTLVTVSS
Reply | 0.63
